- TARGET ENTITY: T1, His-tagged human TIGIT (human, UniProt Q495A1 22-141)
- T1 construct: SPR analyte; also called human TIGIT protein; not shown: His tag
- T1 sequence: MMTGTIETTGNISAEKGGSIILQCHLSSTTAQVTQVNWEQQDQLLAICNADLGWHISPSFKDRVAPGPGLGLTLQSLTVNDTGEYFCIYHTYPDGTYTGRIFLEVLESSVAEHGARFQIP
- ASSAY NOTES: SPR experiment 2, IgG from HEK293 supernatant captured
EXPERIMENTAL READOUT: Kd

humanized TIGIT-19 antibody 19VH4 + 19VL1.M6 (antibody, V domains shown, Full-length IgG, tested as HEK293 supernatant) VH: QVQLVQSGAEVKKPGASVKVSCKASGYAFSRYSMYWVRQAPGQGLEWIAFIDPYNGGSTYNQRFRGKATLTVDTSISTAYMELSRLRSDDTAVYYCARGGDYGWYLGVWGQGTLVTVSS VL: DIQMTQSPSSLSASVGDRVTITCRASQNIYSYLSWYQQKPGKAPKLLIYNAKSLPSGVPSRFSGSGSGTDFTLTISSLQPEDFATYYCQHHYGNPLTFGQGTKVEIK ... 0.15 nM
humanized TIGIT-19 antibody 19VH4 + 19VL1 (antibody, V domains shown, Full-length IgG, tested as HEK293 supernatant) VH: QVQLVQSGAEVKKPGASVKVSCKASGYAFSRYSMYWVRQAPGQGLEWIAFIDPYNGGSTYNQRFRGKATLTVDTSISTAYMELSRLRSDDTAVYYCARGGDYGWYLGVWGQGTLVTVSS VL: DIQMTQSPSSLSASVGDRVTITCRPSENIYTYLSWYQQKPGKAPKLLIYNAKTLPEGVPSRFSGSGSGTDFTLTISSLQPEDFATYYCQHHYGNPLTFGQGTKVEIK ... 0.028 nM
TIGIT-19 chimeric antibody (antibody, human IgG1, kappa, V domains shown, also called 19VH + 19VL) VH: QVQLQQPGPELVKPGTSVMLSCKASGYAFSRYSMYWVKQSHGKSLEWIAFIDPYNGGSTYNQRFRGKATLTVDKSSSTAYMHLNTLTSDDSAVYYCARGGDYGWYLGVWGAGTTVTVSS VL: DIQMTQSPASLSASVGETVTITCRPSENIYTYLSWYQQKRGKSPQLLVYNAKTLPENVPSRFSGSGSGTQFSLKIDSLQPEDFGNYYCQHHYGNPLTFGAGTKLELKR ... 0.12 nM
